Molecular target: SIRT1 (Homo sapiens)
Sequence (Q96EB6 1-747): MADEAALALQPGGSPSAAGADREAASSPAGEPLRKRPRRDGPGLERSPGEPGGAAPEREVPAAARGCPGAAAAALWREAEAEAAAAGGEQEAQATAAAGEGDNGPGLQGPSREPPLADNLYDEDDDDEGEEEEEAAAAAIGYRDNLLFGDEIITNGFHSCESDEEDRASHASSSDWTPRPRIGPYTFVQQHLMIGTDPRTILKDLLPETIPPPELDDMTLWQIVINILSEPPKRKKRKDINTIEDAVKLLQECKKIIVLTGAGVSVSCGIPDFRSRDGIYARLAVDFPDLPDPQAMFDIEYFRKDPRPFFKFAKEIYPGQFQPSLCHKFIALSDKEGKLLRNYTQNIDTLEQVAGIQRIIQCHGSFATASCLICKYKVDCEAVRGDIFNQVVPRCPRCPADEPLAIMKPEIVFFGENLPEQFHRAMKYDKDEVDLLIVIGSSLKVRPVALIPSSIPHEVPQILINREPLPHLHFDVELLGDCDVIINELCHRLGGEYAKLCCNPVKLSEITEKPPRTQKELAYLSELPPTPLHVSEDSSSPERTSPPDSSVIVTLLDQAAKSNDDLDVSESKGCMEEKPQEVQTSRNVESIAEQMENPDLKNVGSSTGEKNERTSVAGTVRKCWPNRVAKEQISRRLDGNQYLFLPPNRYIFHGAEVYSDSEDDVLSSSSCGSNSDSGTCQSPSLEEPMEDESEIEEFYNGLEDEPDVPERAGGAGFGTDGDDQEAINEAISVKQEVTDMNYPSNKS
Assay: Trp mass spectrometry assay (SIRT1 activation)
Assay type: biochemical
Conditions: Trp mass spectrometry assay; EC1.5 = concentration of test compound that results in 150% activation of SIRT1
metric_name: Tryp AVG EC1.5 (μM)

For the compound "Cc1cc(C)nc(NC(=O)N2c3nc(-c4cccc(Cl)c4)ccc3N3CC[C@H]2C3)c1" , the measured Tryp AVG EC1.5 (μM) on SIRT1 (Homo sapiens) was B (EC1.5 1-25 μM)

For the compound CC1CN2CC1N(C(=O)Nc1ccncc1)c1nc(-c3cccc(C(F)(F)F)c3)ccc12 (stereo not shown) , the measured Tryp AVG EC1.5 (μM) on SIRT1 (Homo sapiens) was B (EC1.5 1-25 μM)

For the compound Cc1cc(OCC(O)CO)nc(NC(=O)N2c3nc(-c4cccc(C(F)(F)F)c4)ccc3N3CC[C@H]2C3)n1 (stereo partly shown) , the measured Tryp AVG EC1.5 (μM) on SIRT1 (Homo sapiens) was B (EC1.5 1-25 μM)

For the compound O=C(Nc1ccnc(F)c1)N1c2nc(C3CCCC(C(F)(F)F)C3)ccc2N2CC[C@H]1C2 (stereo partly shown) , the measured Tryp AVG EC1.5 (μM) on SIRT1 (Homo sapiens) was B (EC1.5 1-25 μM)

* * *

Target: SIRT1 (Homo sapiens, UniProt Q96EB6)
Assay: Trp mass spectrometry assay (SIRT1 activation)
Assay type: biochemical
Conditions: Trp mass spectrometry assay; EC1.5 = concentration of test compound that results in 150% activation of SIRT1
metric_name: Tryp AVG EC1.5 (μM)

Field: example entries. Status: answers known.
Input "O=C(Nc1cccc2nccnc12)N1c2nc(-c3cccc(C(F)(F)F)c3)ccc2N2CC[C@H]1C2" . Output Tryp AVG EC1.5 (μM): A (EC1.5<1 μM)

Input "Cn1cc(NC(=O)N2c3nc(-c4cccc(OC(F)(F)F)c4)ccc3N3CC[C@H]2C3)cn1" . Output Tryp AVG EC1.5 (μM): B (EC1.5 1-25 μM)

Input O=C(Nc1cccnn1)N1c2nc(C3CCCC(C(F)(F)F)C3)ccc2N2CC[C@H]1C2 (stereo partly shown) . Output Tryp AVG EC1.5 (μM): B (EC1.5 1-25 μM)

Input O=C(Nc1ccncn1)N1c2nc(N3CCCC(C(F)(F)F)C3)ccc2N2CC[C@H]1C2 (stereo partly shown) . Output Tryp AVG EC1.5 (μM): B (EC1.5 1-25 μM)

Input "O=C(Nc1nc2ccccc2s1)N1c2nc(-c3cccc(C(F)(F)F)c3)ccc2N2CC[C@H]1C2" . Output Tryp AVG EC1.5 (μM): A (EC1.5<1 μM)

Input "Cc1nc(NC(=O)N2c3nc(-c4cccc(Cl)c4)ccc3N3CC[C@H]2C3)sc1C" . Output Tryp AVG EC1.5 (μM): A (EC1.5<1 μM)

***
Input "O=C(Nc1ccc(F)cn1)N1c2nc(-c3cccc(Cl)c3)ccc2N2CC[C@@H]1C2" . Output Tryp AVG EC1.5 (μM): B (EC1.5 1-25 μM)

Input "COc1cncc(NC(=O)N2c3nc(-c4cccc(Cl)c4)ccc3N3CC[C@H]2C3)n1" . Output Tryp AVG EC1.5 (μM): A (EC1.5<1 μM)

Input "N#Cc1cccc(-c2ccc3c(n2)N(C(=O)Nc2cnccn2)[C@H]2CCN3C2)c1" . Output Tryp AVG EC1.5 (μM): A (EC1.5<1 μM)

Input "N#Cc1cccc(-c2ccc3c(n2)N(C(=O)Nc2cncc(F)c2)[C@H]2CCN3C2)c1" . Output Tryp AVG EC1.5 (μM): A (EC1.5<1 μM)

Input "CN(C(=O)N1c2nc(-c3cccc(C(F)(F)F)c3)ccc2N2CC[C@H]1C2)c1ccccn1" . Output Tryp AVG EC1.5 (μM): C (EC1.5>25 μM)

Input "Cc1cccnc1NC(=O)N1c2nc(-c3cccc(Cl)c3)ccc2N2CC[C@H]1C2" . Output Tryp AVG EC1.5 (μM): C (EC1.5>25 μM)

Input O=C(Nc1ccncn1)N1c2nc(C3CCCC(C(F)(F)F)C3)ccc2N2CC[C@H]1C2 (stereo partly shown) . Output Tryp AVG EC1.5 (μM): B (EC1.5 1-25 μM)

Input Cc1nc(NC(=O)N2c3nc(C4CCCC(C(F)(F)F)C4)ccc3N3CC[C@H]2C3)sc1C (stereo partly shown) . Output Tryp AVG EC1.5 (μM): B (EC1.5 1-25 μM)

* * *

Biological target: SIRT1 (Homo sapiens, UniProt Q96EB6)
Experiment: Trp mass spectrometry assay (SIRT1 activation)
Format: biochemical
Conditions: concentration of test compound that results in 150% activation of SIRT1; Trp peptide substrate
metric_name: Tryp AVG EC1.5 (μM)

Field: example entries. Status: answers known.
Input "COc1ncc(-c2ccc3c(n2)N(C(=O)Nc2cnccn2)[C@H]2CCN3C2)c(OC)n1" . Output Tryp AVG EC1.5 (μM): B (EC1.5 1-25 μM)

Input "O=C(Nc1ccccn1)N1c2nc(-c3cncc(Cl)c3)ccc2N2CCC[C@H]1C2" . Output Tryp AVG EC1.5 (μM): A (EC1.5<1 μM)

Input "O=C(Nc1ccncn1)N1c2nc(-c3cccc(C(F)(F)F)n3)ccc2N2CC[C@H]1C2" . Output Tryp AVG EC1.5 (μM): B (EC1.5 1-25 μM)

Input "COc1cc(NC(=O)N2c3nc(-c4cccc(N5CC[C@@H](F)C5)c4)ccc3N3CC[C@H]2C3)ncn1" . Output Tryp AVG EC1.5 (μM): A (EC1.5<1 μM)

Input "COc1cncc(-c2ccc3c(n2)N(C(=O)Nc2ccccn2)[C@H]2CCN3C2)c1" . Output Tryp AVG EC1.5 (μM): B (EC1.5 1-25 μM)

Input "O=C(NCCc1ccccn1)N1c2nc(-c3cccc(C(F)(F)F)c3)ccc2N2CC[C@H]1C2" . Output Tryp AVG EC1.5 (μM): B (EC1.5 1-25 μM)

Input "O=C(Nc1ccncn1)N1c2nc(-c3cncc(Cl)c3)ccc2N2CCC1CC2" . Output Tryp AVG EC1.5 (μM): B (EC1.5 1-25 μM)

Input "O=C(CCCC[C@@H]1SC[C@@H]2NC(=O)N[C@@H]21)NCCCCCC(=O)NCc1cn(-c2cccc(NC(=O)N3c4nc(-c5cccc(C(F)(F)F)c5)ccc4N4CC[C@H]3C4)c2)nn1" . Output Tryp AVG EC1.5 (μM): A (EC1.5<1 μM)

***
Input "COc1cc(NC(=O)N2c3nc(-c4cncc(F)c4)ccc3N3CCC[C@H]2C3)ncn1" . Output Tryp AVG EC1.5 (μM): A (EC1.5<1 μM)

Input "O=C1CN2C[C@H]1N(C(=O)Nc1ccccn1)c1nc(-c3cccc(C(F)(F)F)c3)ccc12" . Output Tryp AVG EC1.5 (μM): B (EC1.5 1-25 μM)

Input "O=C(Nc1cccnn1)N1c2nc(-c3cncc(C(F)(F)F)c3)ccc2N2CCC[C@H]1C2" . Output Tryp AVG EC1.5 (μM): A (EC1.5<1 μM)

* * *

Target: SIRT1 (Homo sapiens, UniProt Q96EB6)
Sequence (Q96EB6 1-747): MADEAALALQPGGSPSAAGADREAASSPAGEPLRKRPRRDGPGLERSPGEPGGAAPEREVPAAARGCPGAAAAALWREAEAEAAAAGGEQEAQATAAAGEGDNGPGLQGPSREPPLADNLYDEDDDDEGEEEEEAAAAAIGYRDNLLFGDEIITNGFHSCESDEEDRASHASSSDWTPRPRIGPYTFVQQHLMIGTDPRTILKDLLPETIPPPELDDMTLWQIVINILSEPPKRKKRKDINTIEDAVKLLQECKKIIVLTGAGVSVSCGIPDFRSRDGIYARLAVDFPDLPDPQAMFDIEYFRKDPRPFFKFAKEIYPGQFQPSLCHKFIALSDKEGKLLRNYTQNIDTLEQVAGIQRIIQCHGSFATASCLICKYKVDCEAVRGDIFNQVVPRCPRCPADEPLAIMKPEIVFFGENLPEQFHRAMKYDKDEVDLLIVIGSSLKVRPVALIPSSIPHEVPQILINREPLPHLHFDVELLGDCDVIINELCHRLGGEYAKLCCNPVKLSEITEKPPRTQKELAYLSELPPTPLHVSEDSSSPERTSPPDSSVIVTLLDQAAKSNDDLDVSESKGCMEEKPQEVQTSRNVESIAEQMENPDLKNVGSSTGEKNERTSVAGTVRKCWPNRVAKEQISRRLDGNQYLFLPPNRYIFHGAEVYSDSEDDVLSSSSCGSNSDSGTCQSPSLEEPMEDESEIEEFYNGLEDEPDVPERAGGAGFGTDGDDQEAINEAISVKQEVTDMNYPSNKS
Test: Trp mass spectrometry assay (SIRT1 activation)
Type: biochemical
Conditions: percent maximum fold activation of SIRT1; Trp peptide substrate; read-out: Tryp % Fold Act
metric_name: Emax

Field: example entries. Status: answers known.
Input COc1cc(NC(=O)N2c3nc(-c4cccc(N5CCC(C(F)(F)F)C5)c4)ccc3N3CC[C@H]2C3)ncn1 (some centres unmarked) [Example 320] . Output Emax: ≥ 150%

Input CS(=O)(=O)c1cccc(-c2ccc3c(n2)N(C(=O)Nc2cnccn2)[C@H]2CCN3C2)c1 [Example 415] . Output Emax: ≥ 150%

Input O=C(Nc1ccccn1)N1c2nc(Cl)ccc2N2CC[C@H]1C2 [Example 258] . Output Emax: ≥ 150%

***
Input O=C(Nc1ccccn1)N1c2nc(-c3cccc(C(F)(F)F)c3F)ccc2N2CC[C@H]1C2 [Example 334] . Output Emax: ≥ 150%

Input Cc1cncc(NC(=O)N2c3nc(N4CCCC(C(F)(F)F)C4)ccc3N3CCC[C@H]2C3)c1 (some centres unmarked) [Example 289] . Output Emax: ≥ 150%

Input N#Cc1ccccc1-c1ccc2c(n1)N(C(=O)Nc1ccccn1)[C@H]1CCCN2C1 [Example 449] . Output Emax: ≥ 150%

Input O=C(Nc1cccnc1)N1c2nc(-c3cncc(Cl)c3)ccc2N2CC[C@H]1C2 [Example 526] . Output Emax: ≥ 150%

Input O=C(Nc1ccccn1)N1c2nc(-c3cncc(F)c3)ccc2N2CCC[C@H]1C2 [Example 470] . Output Emax: ≥ 150%
